# assayed-target: hSSB1 (Homo sapiens, UniProt Q9BQ15 Q9BQ15:1-211)
# Sequence (Q9BQ15 whole entry, one chain of several): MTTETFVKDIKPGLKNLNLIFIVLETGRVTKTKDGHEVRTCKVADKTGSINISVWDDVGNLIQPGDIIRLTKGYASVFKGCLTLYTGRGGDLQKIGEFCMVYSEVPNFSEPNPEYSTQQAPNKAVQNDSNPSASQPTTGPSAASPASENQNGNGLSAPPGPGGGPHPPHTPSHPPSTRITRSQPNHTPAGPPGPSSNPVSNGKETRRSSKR
# assay-summary: SPR
Doc: threshold 1 normalized Rmax (exclusive). Items with binding signal beneath it return y; others return n.

Problem: Lab note: confirm whether the reported binding signal for this binder is below 1 normalized Rmax, equality not counting. binder: GAGGCAGCAGUACGAC (ssRNA, 2'-OMe all, full PS) [LSA_ATG both-end truncation 16 nt]
Solution: y

Problem: binding signal strictly < 1 normalized Rmax for this binder? UCAAGGAAGAUGGCAUUUCU (ssRNA, 2'-OMe all, full PS) [DKLS687764 (SEQ 14)]
Solution: n

Problem: hey, is binding signal for CCAUCUGUAAUUACAAAAUUAAA (ssRNA, 2'-OMe all, full PS) [DKLS765774 (SEQ 16)] lower than 1 normalized Rmax or not?
Solution: n

Problem: Consider GAGUAAACAUUCUGUGUGGAGUC (ssRNA, 2'-OMe all, full PS) [DKLS965031 (SEQ 17)] . Does its binding signal lie strictly below 1 normalized Rmax?
Solution: n

Problem: Does the reported binding signal of the following binder sit strictly below 1 normalized Rmax? CAGAGGCAGCAGUACGACG (ssRNA, 2'-OMe all, full PS) [LSA_ATG 3' truncation 19 nt]
Solution: y

Problem: Input CUGCCUAAGUAAAAAGUGUAAAC (ssRNA, 2'-OMe all, full PS) [DKLS687118 (SEQ 15)] ; condition: binding signal strictly below 1 normalized Rmax. Does it hold?
Solution: n

Problem: Report whether reported binding signal is lower than 1 normalized Rmax (strictly) for GCGGGUCCUCUACGCACUGA (ssRNA, 2'-OMe all, full PS) [DKLS649547 (SEQ 53)]
Solution: n
